biological target: Amyloid-beta precursor protein (Homo sapiens, UniProt P05067); test: Displacement of [3H]PiB from human amyloid beta (1-42) at 100 nM after 180 mins by liquid scintillation counter
Sequence (P05067 whole entry): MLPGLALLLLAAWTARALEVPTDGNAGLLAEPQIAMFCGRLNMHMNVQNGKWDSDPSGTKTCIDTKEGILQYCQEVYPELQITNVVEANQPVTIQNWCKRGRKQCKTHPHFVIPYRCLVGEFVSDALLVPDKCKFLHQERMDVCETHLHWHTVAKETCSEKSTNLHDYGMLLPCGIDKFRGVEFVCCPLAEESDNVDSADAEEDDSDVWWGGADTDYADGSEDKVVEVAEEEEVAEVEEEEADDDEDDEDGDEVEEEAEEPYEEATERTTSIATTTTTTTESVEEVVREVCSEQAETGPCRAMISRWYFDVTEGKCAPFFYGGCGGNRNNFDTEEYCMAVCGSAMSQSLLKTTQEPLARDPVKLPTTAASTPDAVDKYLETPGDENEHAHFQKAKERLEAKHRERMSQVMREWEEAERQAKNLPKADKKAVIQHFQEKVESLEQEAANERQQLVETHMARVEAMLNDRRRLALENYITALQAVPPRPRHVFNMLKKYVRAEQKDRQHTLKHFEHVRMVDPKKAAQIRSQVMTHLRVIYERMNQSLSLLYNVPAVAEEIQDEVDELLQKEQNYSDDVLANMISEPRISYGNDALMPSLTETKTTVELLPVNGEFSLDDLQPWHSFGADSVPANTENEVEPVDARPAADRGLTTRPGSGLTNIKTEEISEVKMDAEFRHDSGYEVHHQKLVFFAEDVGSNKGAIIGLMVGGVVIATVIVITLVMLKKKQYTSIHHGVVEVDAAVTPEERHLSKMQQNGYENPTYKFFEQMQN
Please note: condition met applies when inhibition is 90% or greater, and condition not met applies otherwise.

Nc1ccc(-c2cn3c(n2)sc2cc(O)ccc23)cc1 : condition not met
CNc1ccc(-c2cn3c(n2)sc2cc(OC)ccc23)cc1 : condition met
COc1ccc2c(c1)sc1nc(-c3ccc(NC(C)=O)cc3)cn12 : condition not met

IN: # bool: inhibition of CN(C)c1ccc(-c2cn3c(n2)sc2cc(O)ccc23)cc1 >= 90%
OUT: condition not met
